Observable: MDR1-MDCK efflux ratio

Examples with answers:
[
  {
    "Given smiles": "Cc1cn2c3c(=O)n(Cc4ccccc4Cl)c(=O)n(C)c3nc2n1-c1ccccc1O",
    "Recorded measurement": 12.8
  },
  {
    "Given smiles": "Cc1cc(C(F)(F)F)nc(CCNC(=O)N(C)Cc2ccncc2C)n1",
    "Recorded measurement": 52
  },
  {
    "Given smiles": "O=C1CCCN1C(=O)COc1cccc(-c2nnco2)c1",
    "Recorded measurement": 0.91
  },
  {
    "Given smiles": "Fc1ccc(F)c(CN2CCN(Cc3ccc4c(c3)OCO4)CC2)c1",
    "Recorded measurement": 0.645
  },
  {
    "Given smiles": "CCCNC(=O)C1(Cc2ccccn2)CCOCC1",
    "Recorded measurement": 10.9
  },
  {
    "Given smiles": "Nc1nc(N)c2c(OCC3CCN(Cc4c(Cl)cccc4Cl)CC3)cccc2n1",
    "Recorded measurement": 0.816
  },
  {
    "Given smiles": "Cc1cc(C(=O)NCC2CCN(c3ccc4ccccc4n3)CC2)cnc1C",
    "Recorded measurement": 2.19
  },
  {
    "Given smiles": "CCCn1c(=O)n(Cc2ccc(C#N)cc2F)c2ccccc21",
    "Recorded measurement": 0.638
  },
  {
    "Given smiles": "Cc1ccccc1-c1nc(Cn2ccnc2C(C)C)c(C)o1",
    "Recorded measurement": 0.732
  },
  {
    "Given smiles": "Cc1nc2ccccc2n1Cc1ccc(C(=O)O)cc1",
    "Recorded measurement": 2.75
  }
]

P: CCc1nc(CNc2ccc(C#N)nc2)cs1
Q: Cc1ncc(-c2ccccn2)c(CCNC(=O)C2CCCC2)n1
Problem: Please choose the item with the lower MDR1-MDCK efflux ratio value from this pair: P and Q // caller expects the label of the chosen entry
Solution: P
(P: 0.556, Q: 7.73)

###

Observable: intrinsic clearance, human liver microsomes (mL/min/kg)

I: CCCn1cc(C(=O)N2CCC(c3n[nH]cc3C(=O)N(C)Cc3ccccc3)CC2)cn1
II: Cc1nc(N2CCn3ccnc3C2)c2cnn(C)c2n1
Problem: Recorded intrinsic clearance, human liver microsomes values differ for I and II ; which one is higher? // caller expects the label of the chosen entry
Solution: I

A: Cc1nn(CCNS(=O)(=O)N2CCCCC2)c(C)c1C
B: Fc1ccc(CCNc2ncnc3ncccc23)cc1
Problem: Recorded intrinsic clearance, human liver microsomes values differ for A and B ; which one is higher? // caller expects the label of the chosen entry
Solution: A
(A: 163 mL/min/kg, B: 13.3 mL/min/kg)

a: c1ccc(C2(CNc3nc4ccccc4o3)CCOCC2)cc1
b: CN(C)c1ccnc(NCc2ccc(F)cc2)n1
c: c1ccc(Nc2nc(N3CCOCC3)nc(N3CCOCC3)n2)cc1
d: Cc1cc(C(=O)N2CCOC(C)(C)C2)cc(C)c1OCc1cccnc1
Problem: Arrange the 4 compounds from largest to smallest intrinsic clearance, human liver microsomes. Arrange the labels as the request states and list them.
Solution: d, a, b, c
(d: 270 mL/min/kg, a: 129 mL/min/kg, b: 54 mL/min/kg, c: 22.8 mL/min/kg)

a: CC(C)N(C[C@@H]1O[C@@H](n2cnc3c(N)ncnc32)[C@H](O)[C@H]1O)[C@H]1C[C@@H](CCc2nc3cc(C(C)(C)C)ccc3[nH]2)C1
b: Cc1cc(N2CCN(CC3CCN(C(=O)CC(C)C)CC3)CC2)n[nH]1
c: c1ccc2c(c1)CN(c1cnc3ccccc3n1)CCN2
d: Cc1c(-c2c(F)cc(C(N)=O)c3[nH]c4c(c23)CC[C@H](C(C)(C)O)C4)cccc1-n1c(=O)c2cccc(F)c2n(C)c1=O
Problem: Arrange the 4 compounds from largest to smallest intrinsic clearance, human liver microsomes. Arrange the labels as the request states and list them.
Solution: a, c, d, b

A: Cc1csc2nc3n(c(=O)c12)CCNCC3
B: CCCNS(=O)(=O)Nc1ncnc(OCCOc2ncc(Br)cn2)c1-c1ccc(Br)cc1
Problem: Recorded intrinsic clearance, human liver microsomes values differ for A and B ; which one is higher? // caller expects the label of the chosen entry
Solution: B
(B: 101 mL/min/kg, A: 7.83 mL/min/kg)
